Hi, quick share: literature pIC50 data for High affinity nerve growth factor receptor (Homo sapiens, UniProt P04629), several sources combined.
pIC50: −log10 of the molar value.

Some solved cases for reference:
| molecule | observed.value |
| --- | --- |
| CC(Oc1cc(-c2ccc(C(N)=O)c(N3C[C@H]4CN(Cc5ccccc5)C[C@H]4C3)c2)cc2[nH]nc(N)c12)C(F)(F)F (stereo partly shown) | 6.07 |
| CCCN(c1ccc2ncc(-c3ccc4cn[nH]c4c3)n2n1)C1CCOCC1 | < 4.52 |
| CCc1ccc(Nc2ccc(C(=O)c3c[nH]c4ncnc(N[C@@H](C)c5ccc(F)cc5)c34)c(F)n2)cn1 | > 7.00 |
| CNC(=O)c1ccc(-c2cc(OC3CCOCC3)c3c(N)n[nH]c3c2)cc1N1CCN(CC2CC(F)(F)C2)CC1 | 8.26 |
| COc1cc2ncnc(Oc3ccc(NC(=O)c4cn(C)c(=O)n(-c5ccc(F)cc5)c4=O)cc3F)c2c2c1OCCO2 | > 7.30 |
| COCCN1C[C@@H](NC(=O)Nc2c(C)c(=O)[nH]n2-c2ccccc2)[C@H](c2cccc(F)c2)C1 | > 7.00 |

Now look at this one.
Report pIC50 for "C[C@H]1CNC(=O)c2cnn3cc(-c4ccc(Cl)cc4Cl)c(nc23)NCc2cc(F)cnc2O1" please.
< 5.00
